# credit: patent US20070020327A1

molecular target: HLA-A*0203 (human); experiment: competition with 125I-labelled standard peptide 941.01 for purified HLA, gel filtration; conditions: scale: ratio
valueType: binding affinity ratio
Lab note: record the figure alone, no unit after it.

- binder: "VTKFMLCA (modifications not checked) [VTKFMLCA (PSA, position 188, 8 amino acids)]"
  resultNumber: 0.0031
- binder: "VTEFMLCA (modifications not checked) [VTEFMLCA (Kallikrein, position 192, 8 amino acids)]"
  resultNumber: 0.0005

Prompt: For VTWIGAAPLIL (modifications not checked) [… (PSA, position 8, 11 amino acids)] , what is its reported binding affinity ratio?
Completion: 0.0009

Prompt: Fill in: binding affinity ratio of VVHYRKWIKDT (modifications not checked) [… (Kallikrein, position 246, 11 amino acids)] is ___
Completion: 0.0002
